Target: Trypsin (Bos taurus)
Sequence (P00760 24-246): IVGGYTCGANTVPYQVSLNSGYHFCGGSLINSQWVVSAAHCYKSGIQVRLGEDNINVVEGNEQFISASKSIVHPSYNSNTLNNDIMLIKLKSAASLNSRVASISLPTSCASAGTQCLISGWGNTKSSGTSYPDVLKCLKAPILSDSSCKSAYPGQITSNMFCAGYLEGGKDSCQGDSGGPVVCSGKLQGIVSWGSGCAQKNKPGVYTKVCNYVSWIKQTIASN
Assay: biochemical
Design: species or system Bovine
Conditions: read-out: Kass Trypsin (converted)
Counter-ions that a name gives are not always drawn.
The entries below come with measured Kd values attached.
Quick reminder: number only, in µM, skip the unit.

>  <Compound>
N=C(N)N1CCC(CNC(=O)[C@@H]2CCCN2C(=O)[C@@H](CC2CCCCC2)NCC(=O)O)CC1

>  <System name>
Trypsin (Bos taurus)

>  <Result number>
0.278

$$$$
>  <Compound>
N=C(N)c1cccc(CNC(=O)[C@@H]2CCCN2C(=O)[C@H](N)Cc2ccccc2)c1 [Example 16, D-Phe-Pro-m-NHCH2C6H4C(NH)NH2·0.75HCl]

>  <System name>
Trypsin (Bos taurus)

>  <Result number>
50

$$$$

// recorded Kd for `CCS(=O)(=O)N[C@H](Cc1ccccc1)C(=O)N1CCC[C@H]1C(=O)NCCc1ccc(NC(=N)N)cc1` : 25

The recorded Kd for N=C(N)NCc1ccc(CNC(=O)[C@@H]2CCCN2C(=O)[C@H](N)Cc2ccccc2)cc1 [Example 9, D-Phe-Pro-p-NHCH2-C6H4CH2NHC(NH)NH2·2TFA] is 5880

N=C(N)Nc1ccc(CNC(=O)[C@@H]2CCCN2C(=O)[C@@H]2NCC[C@@H]3CCCC[C@@H]32)cc1 [Example 38, D-1-Piq-Pro-p-NHCH2C6H4NHC(NH)NH2·2HCl] yielded Kd of 14.3

// field: Kd; key: `N=C(N)c1ccc(CNC(=O)[C@@H]2C[C@H](Oc3ccccc3)CN2C(=O)[C@H]2CCCCN2)cc1` ; value = 0.118

For record `CCS(=O)(=O)N[C@H](Cc1ccccc1)C(=O)N1CCC[C@H]1C(=O)NCCc1ccc(C(=N)N)cc1` the listed Kd is 4.76

Sample Nc1ccc(CNC(=O)[C@@H]2CCCN2C(=O)[C@H](N)Cc2ccccc2)cc1 [Example 13, D-Phe-Pro-p-NHCH2C6H4NH2·HCl] ; Kd observed: 1520

Kd recorded for this compound, `O=C(O)CN[C@H](CC1CCCCC1)C(=O)N1CCC[C@H]1C(=O)NCCC1CCNCC1` , is 1.92

Kd reported for this compound `CCS(=O)(=O)N[C@H](CC1CCCCC1)C(=O)N1CCC[C@H]1C(=O)NCc1ccc(N)nc1` : 14.3

// CCS(=O)(=O)N[C@H](CC1CCCCC1)C(=O)N1CCC[C@H]1C(=O)NCc1ccc(CN)cc1 [Example 81, EtSO2-D-Cha-Pro-4-NHCH2C6H4CH2NH2·HCl] : Kd value = 0.476

The value of Kd measured for the compound N=C(N)NCCCCNC(=O)[C@@H]1CCCN1C(=O)[C@@H]1NCC[C@H]2CCCC[C@H]21 [Example 61, trihydrochloride] turned out to be 1

----------
Target: Plasmin (Homo sapiens)
Construct: Human plasmin is purchased; purchased Boehringer Mannheim, Indianapolis, Indiana
Sequence (P00747 581-810 limits assumed): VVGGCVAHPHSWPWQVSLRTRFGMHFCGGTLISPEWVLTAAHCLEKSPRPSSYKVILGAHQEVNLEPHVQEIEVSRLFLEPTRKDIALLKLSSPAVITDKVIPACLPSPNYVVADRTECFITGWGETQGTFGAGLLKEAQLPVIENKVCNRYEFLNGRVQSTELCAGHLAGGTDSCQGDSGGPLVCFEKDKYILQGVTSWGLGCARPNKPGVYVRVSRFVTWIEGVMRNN
Sequence (P00747 97-580 partner limits assumed): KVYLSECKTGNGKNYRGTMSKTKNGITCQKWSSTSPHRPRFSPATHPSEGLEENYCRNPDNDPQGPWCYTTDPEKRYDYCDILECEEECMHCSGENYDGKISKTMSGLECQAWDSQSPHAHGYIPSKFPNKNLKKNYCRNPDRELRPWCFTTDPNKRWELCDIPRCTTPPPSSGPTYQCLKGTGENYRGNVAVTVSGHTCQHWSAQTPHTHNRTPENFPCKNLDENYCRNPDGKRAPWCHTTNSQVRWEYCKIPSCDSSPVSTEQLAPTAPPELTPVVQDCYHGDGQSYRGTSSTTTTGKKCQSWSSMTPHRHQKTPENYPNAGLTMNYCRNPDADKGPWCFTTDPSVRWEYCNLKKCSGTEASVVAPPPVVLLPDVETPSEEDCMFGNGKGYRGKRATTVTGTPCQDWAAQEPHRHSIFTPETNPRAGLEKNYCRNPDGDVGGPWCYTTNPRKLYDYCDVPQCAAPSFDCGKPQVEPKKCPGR
Experiment: biochemical
Conditions: read-out: Kass Plasmin (converted)
Structures can show the parent of a compound that is named as a salt.
Measure name: Kd (µM)
// note: answer is a bare numeric in µM

>  <Compound>
CCS(=O)(=O)N[C@H](Cc1ccccc1)C(=O)N1CCC[C@H]1C(=O)NCc1ccc(C(=N)N)cc1 [Example 23]

>  <Kd, µM>
2.27

$$$$
>  <Compound>
Nc1ccc(CNC(=O)[C@@H]2CCCN2C(=O)[C@H](N)Cc2ccccc2)cc1 [Example 13, D-Phe-Pro-p-NHCH2C6H4NH2·HCl]

>  <Kd, µM>
9090

$$$$
>  <Compound>
N=C(N)c1ccc(CNC(=O)[C@@H]2CCCN2C(=O)[C@H]2C[C@H]3CCCC[C@H]3CN2)cc1 [Example 19, D-3-Piq-Pro-p-NHCH2C6H4C(NH)NH2·3HCl]

>  <Kd, µM>
6.25

$$$$

// moving on: another record for Kd
Entry under test: N=C(N)N1CCC(CNC(=O)[C@@H]2CCCN2C(=O)[C@@H](CC2CCCCC2)NCC(=O)O)CC1 [Example 56] . Its Kd was 100
